meta.source: patent US20230373985A1

- TARGET: wt human TYK2, catalytic site (Homo sapiens)
- Construct: wt human TYK2, catalytic site
- Sequence (P29597 897-1176 limits assumed): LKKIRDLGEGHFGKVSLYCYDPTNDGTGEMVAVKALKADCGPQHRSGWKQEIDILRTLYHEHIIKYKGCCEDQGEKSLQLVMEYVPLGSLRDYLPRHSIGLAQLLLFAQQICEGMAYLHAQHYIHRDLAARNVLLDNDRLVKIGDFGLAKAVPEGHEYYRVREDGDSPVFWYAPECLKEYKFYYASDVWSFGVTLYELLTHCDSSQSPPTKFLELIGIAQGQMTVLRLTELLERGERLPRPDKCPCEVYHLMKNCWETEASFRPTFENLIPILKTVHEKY
- PROTOCOL SUMMARY: HTRF KinEASE assay, TYK2
- ASSAY CONDITIONS: 1 μM ATP; read-out: IC50, Activity Toward TYK2
pIC50: −log10 of the molar value.
Would you mind telling me the reported pIC50 of each entry?

Log: wt human TYK2, catalytic site (Homo sapiens), molecule Cc1cc(Nc2cn(-c3c(F)cccc3F)nc2C(N)=O)nc(N)n1 [compound 8] , pIC50 = 6.00 to 7.00

Noted pIC50 for CC(C)(C)OC(=O)N[C@@H]1CCN(C(=O)c2ccc(Nc3cn(-c4c(Cl)cccc4Cl)nc3C(N)=O)cc2)C1 [compound 324] , tested on wt human TYK2, catalytic site (Homo sapiens): 6.00 to 7.00

Form field, pIC50 with wt human TYK2, catalytic site (Homo sapiens), item Cc1nc(C(F)(F)F)nn1-c1ccc(Nc2cn(-c3c(Cl)cccc3Cl)nc2C(N)=O)cc1 [compound 275] : > 8.00

Tested system wt human TYK2, catalytic site (Homo sapiens); pIC50 recorded for NC(=O)c1nn(-c2c(Cl)cccc2Cl)cc1Nc1ccc(N2CCOCC2)cn1 [compound 428] was 6.00 to 7.00

Observed pIC50 on wt human TYK2, catalytic site (Homo sapiens), entry Cn1nnc(-c2ccc(Nc3cn(-c4c(Cl)cccc4Cl)nc3C(N)=O)nc2)n1 [compound 434] , equals 6.00 to 7.00

For Cc1ccnnc1-c1ccc(Nc2cn(-c3c(F)cccc3F)nc2C(N)=O)cc1 [compound 296] on wt human TYK2, catalytic site (Homo sapiens), measured pIC50 was 7.00 to 8.00

Short answer on wt human TYK2, catalytic site (Homo sapiens) for Cc1nn(-c2ccc(Nc3cn(-c4c(Cl)cccc4Cl)nc3C(N)=O)cc2)c(C)c1C [compound 224] , pIC50: 6.00 to 7.00

wt human TYK2, catalytic site (Homo sapiens) data for Cn1cnnc1-c1ccc(Nc2cn(-c3c(Cl)cccc3Cl)nc2C(N)=O)cn1 [compound 360] ; its pIC50: 7.00 to 8.00

Fill in: wt human TYK2, catalytic site (Homo sapiens) pIC50 for CCc1ccnn1-c1ccc(Nc2cn(-c3c(Cl)cccc3Cl)nc2C(N)=O)cc1 [compound 241] = 7.00 to 8.00

Test item NC(=O)c1nn(-c2c(Cl)cccc2Cl)cc1Nc1ccc(C(=O)N2CCCC2)cn1 [compound 226] ; wt human TYK2, catalytic site (Homo sapiens); reported pIC50 was 7.00 to 8.00

Test item NC(=O)c1nn(-c2c(Cl)cccc2Cl)cc1Nc1ccc(C(=O)N2CCOCC2)cc1 [compound 17] ; wt human TYK2, catalytic site (Homo sapiens); reported pIC50 was > 8.00

Entry NC(=O)c1nn(-c2c(Cl)cccc2Cl)cc1Nc1ccc(-c2nc(C(F)(F)F)cn2CCO)nc1 [compound 373] , tested on wt human TYK2, catalytic site (Homo sapiens), has a reported pIC50 of 7.00 to 8.00

pIC50 of CN1CCC(N(C)C(=O)c2ccc(Nc3cn(-c4c(Cl)cccc4Cl)nc3C(N)=O)cc2)CC1 [compound 50] , assay on wt human TYK2, catalytic site (Homo sapiens), is 7.00 to 8.00

The value of pIC50 recorded for NC(=O)c1nn(-c2c(Cl)cccc2Cl)cc1Nc1ccc(-c2cccnn2)cc1 [compound 49] when tested on wt human TYK2, catalytic site (Homo sapiens) reads 7.00 to 8.00

Hey, wt human TYK2, catalytic site (Homo sapiens) data for NC(=O)c1nn(-c2c(Cl)cccc2Cl)cc1Nc1ccc(-n2cnc(Cl)n2)cc1 [compound 79] : pIC50 came out at 7.00 to 8.00

The recorded pIC50 with wt human TYK2, catalytic site (Homo sapiens) for CN(C)[C@@H]1CCN(C(=O)c2ccc(Nc3nn(-c4c(Cl)cccc4Cl)nc3C(N)=O)nc2)C1 [compound 133] was 6.00 to 7.00

====

Please respond with reported pIC50 for every item in the list.
- TARGET: wt human JAK1, catalytic site (Homo sapiens)
- Construct: wt human JAK1, catalytic site
- PROTOCOL SUMMARY: HTRF KinEASE assay, JAK1
- ASSAY CONDITIONS: 2.5 μM ATP; read-out: IC50, Activity Toward JAK1
pIC50: −log10 of the molar value.

Measured pIC50 of CN=S1(=O)CCN(C(=O)c2ccc(Nc3nn(-c4c(Cl)cccc4Cl)nc3C(N)=O)cc2)CC1 [compound 171] : > 8.00

Recorded pIC50 (molecule N=S1(=O)CCN(C(=O)c2ccc(Nc3nn(-c4c(Cl)cccc4Cl)nc3C(N)=O)cc2)CC1 [compound 169] ): > 8.00

Per the records, this molecule ( Cc1cnnn1-c1ccc(Nc2cn(-c3c(Cl)cccc3Cl)nc2C(N)=O)nc1 [compound 432] ) has pIC50 equal to 7.00 to 8.00

Value of measured pIC50 for the entry Cc1cccc2nnc(-c3ccc(Nc4cn(-c5c(Cl)cccc5Cl)nc4C(N)=O)nc3)n12 [compound 429] : 6.00 to 7.00

Reported pIC50 for NC(=O)c1nn(-c2c(Cl)cccc2Cl)cc1Nc1ccc(C(=O)N2CC[C@@H](F)C2)cn1 [compound 443] was 7.00 to 8.00

Kindly note the recorded pIC50 for NC(=O)c1nn(-c2c(Cl)cccc2Cl)cc1Nc1ccc(-n2ncnc2C2COC2)cc1 [compound 347] , which is 7.00 to 8.00

Given item Cc1nc(C(F)(F)F)nn1-c1ccc(Nc2cn(-c3c(Cl)cccc3Cl)nc2C(N)=O)cc1 [compound 275] , the value recorded as its pIC50 is 7.00 to 8.00

Record NC(=O)c1nn(-c2c(Cl)cccc2Cl)cc1Nc1ccc(OC2CCNCC2)cc1 [compound 424] . Reported pIC50: 6.00 to 7.00

Item: Cc1cnnn1-c1ccc(Nc2nn(-c3c(Cl)cccc3Cl)nc2C(N)=O)nc1 [compound 141] | pIC50: 7.00 to 8.00

Value of pIC50 reported for the molecule CCc1nnnn1-c1ccc(Nc2cn(-c3c(Cl)cccc3Cl)nc2C(N)=O)cc1 [compound 259] is 7.00 to 8.00

get_value(item= NC(=O)c1nn(-c2c(Cl)cccc2Cl)cc1Nc1ccc(C(=O)N2CC(F)C2)cn1 [compound 449] , readout=pIC50) returns 6.00 to 7.00

Cc1ccnnc1-c1ccc(Nc2cn(-c3c(Cl)cccc3Cl)nc2C(N)=O)cc1 [compound 45] has a reported pIC50 of 6.00 to 7.00

Query N#Cc1cccc(Cl)c1-n1nc(Nc2ccc(C(=O)N3CC[C@@H](F)C3)cc2)c(C(N)=O)n1 [compound 162] yields pIC50 of 7.00 to 8.00

Lab note: NC(=O)c1nn(-c2c(Cl)cccc2Cl)cc1Nc1ccc(-c2nnc3cncc(C(F)(F)F)n23)nc1 [compound 472] gave pIC50 of 7.00 to 8.00

The molecule listed as NC(=O)c1nn(-c2c(Cl)cccc2Cl)nc1Nc1ccc(N2CCOCC2)cn1 [compound 143] shows pIC50 equal to 6.00 to 7.00

# pIC50 of NC(=O)c1nn(-c2c(Cl)cccc2Cl)cc1Nc1ccc(-c2nnccc2C(F)(F)F)cc1 [compound 69] = 6.00 to 7.00

====

- TARGET: wt human JAK1, catalytic site (Homo sapiens, UniProt P23458)
- Construct: wt human JAK1, catalytic site
- Sequence (P23458 875-1153 limits assumed): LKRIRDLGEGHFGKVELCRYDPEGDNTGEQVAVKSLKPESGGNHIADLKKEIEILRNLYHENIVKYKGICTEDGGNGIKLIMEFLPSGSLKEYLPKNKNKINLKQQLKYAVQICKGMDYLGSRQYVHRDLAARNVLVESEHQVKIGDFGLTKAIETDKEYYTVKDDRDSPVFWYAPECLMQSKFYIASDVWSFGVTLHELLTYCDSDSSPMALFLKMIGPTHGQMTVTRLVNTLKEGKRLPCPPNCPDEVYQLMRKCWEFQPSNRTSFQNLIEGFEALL
- PROTOCOL SUMMARY: HTRF KinEASE assay, JAK1
- ASSAY CONDITIONS: 2.5 μM ATP; read-out: IC50, Activity Toward JAK1
pIC50: −log10 of the molar value.
I'd appreciate it if you could supply pIC50 values for the items below.

Value of measured pIC50 for the entry CC(C)(C)OC(=O)N[C@@H]1CCN(C(=O)c2ccc(Nc3cn(-c4c(Cl)cccc4Cl)nc3C(N)=O)cc2)C1 : 6.00 to 7.00

Value of pIC50 reported for the molecule CN1CCC(N(C)C(=O)c2ccc(Nc3cn(-c4c(Cl)ccc(F)c4Cl)nc3C(N)=O)cc2)CC1 is 7.00 to 8.00

Entry Cn1nnnc1-c1ccc(Nc2nn(-c3c(Cl)cccc3Cl)nc2C(N)=O)nc1 , pIC50 reported as 7.00 to 8.00

Entry Cc1cncc2nnc(-c3ccc(Nc4cn(-c5c(Cl)cccc5Cl)nc4C(N)=O)cn3)n12 ; pIC50 = > 8.00

The reported value for N#Cc1cccc(F)c1-n1nc(Nc2ccc(C(=O)N3CC[C@@H](F)C3)cc2)c(C(N)=O)n1 in terms of pIC50 is 7.00 to 8.00

Field pIC50 (entry CCc1ccn(-c2ccc(Nc3cn(-c4c(Cl)cccc4Cl)nc3C(N)=O)cc2)n1 ) reads 6.00 to 7.00

Reported pIC50 ( NC(=O)c1nn(-c2c(Cl)cccc2Cl)cc1Nc1ccc(C(=O)N2CCN(CC(F)(F)F)CC2)cc1 ) = 6.00 to 7.00

For reference, reported pIC50 for CC(C)c1nnnn1-c1ccc(Nc2cn(-c3c(Cl)cccc3Cl)nc2C(N)=O)cn1 stands at 6.00 to 7.00

// sample NC(=O)c1nn(-c2c(Cl)cccc2Cl)cc1Nc1ccc(-c2nnc3n2CCCCC3)cc1 , its pIC50 was 6.00 to 7.00

In plain terms, NC(=O)c1nn(-c2c(Cl)cccc2Cl)cc1Nc1ccc(-c2nccn2CC(F)(F)F)cc1 has a documented pIC50 of 7.00 to 8.00

Lab book: pIC50 of NC(=O)c1nn(-c2c(Cl)cccc2Cl)cc1Nc1ccc(-c2nncn2CC(F)F)cc1 noted as 7.00 to 8.00

response.value for CN(C)[C@H]1CCN(C(=O)c2ccc(Nc3cn(-c4c(Cl)cccc4Cl)nc3C(N)=O)cc2)C1 (field: pIC50) = 7.00 to 8.00

The reported value for N#Cc1ccnnc1-c1ccc(Nc2cn(-c3c(Cl)cccc3Cl)nc2C(N)=O)cc1 in terms of pIC50 is 7.00 to 8.00

Per the record, CS(=O)(=O)Nc1ccc(Nc2cn(-c3c(Cl)cccc3Cl)nc2C(N)=O)cc1 has pIC50 of 7.00 to 8.00

Entry NC(=O)c1nn(-c2c(Cl)cccc2Cl)cc1Nc1ccc(C(=O)N2CC(O)C2)cc1 ; pIC50 = 7.00 to 8.00

get_value(item= NC(=O)c1nn(-c2c(Cl)cccc2Cl)nc1Nc1ccc(C(=O)N2CCS(=O)(=O)CC2)cc1 , readout=pIC50) returns > 8.00
